- Tested on: Staphylococcus aureus ATCC 25923
- Experiment description: Determination of MIC and MBC by microdilution method, Staphylococcus aureus ATCC 25923
- Type: cell-based
- Protocol conditions: S. aureus ATCC 25923; Mueller-Hinton broth, 18 hours at 37°
Provide the reported Minimal inhibitory concentration (MIC) of each item.
A number alone suffices; assume µg/mL.

query: Tell me the measured Minimal inhibitory concentration (MIC) of "C=CCn1cc(C(=O)O)c(=O)c2cc(F)c(N3CCC(NC(C)=O)CC3)c(F)c21" , please.
result: 1

query: What value of Minimal inhibitory concentration (MIC) has been reported for the following compound? "C=CCn1cc(C(=O)O)c(=O)c2cc(F)c(N3CCC(CNC(=O)NC(=O)c4ccccc4)CC3)c(F)c21"
result: 1

* * *

Please provide measured Minimal bactericidal concentration (MBC) for the entries that follow.
- Test system: Staphylococcus aureus ATCC 25923
- Experiment description: Determination of MIC and MBC by microdilution method, Staphylococcus aureus ATCC 25923
- Assay type: cell-based
- Protocol conditions: S. aureus ATCC 25923
Provide the reading as a plain figure in µg/mL.

query: What value of Minimal bactericidal concentration (MBC) has been recorded for this entry: "C=CCn1cc(C(=O)O)c(=O)c2cc(F)c(N3CCC(CNC(=O)NC(=O)c4ccccc4)CC3)c(F)c21"
result: 4

query: I would be grateful if you could share the reported Minimal bactericidal concentration (MBC) for "C=CCn1cc(C(=O)O)c(=O)c2cc(F)c(N3CCC(NC(C)=O)CC3)c(F)c21" .
result: 4

* * *

- System: Pseudomonas aeruginosa ATCC 22853
- Experiment description: Determination of MIC and MBC by microdilution method, Pseudomonas aeruginosa ATCC 22853
- Type: cell-based
- Protocol conditions: Pseudomonas aeruginosa, ATCC22853, P. aeruginosa ATCC 22853; read-out: Minimal bactericidal concentration (MBC)
Measure name: MBC

query: Request the reported MBC associated with "CCC(=O)NCC1CCN(c2c(F)cc3c(=O)c(C(=O)O)cn(CCF)c3c2F)CC1"
result: > 12 µg/mL

query: Suppose we examine the compound "CCn1cc(C(=O)O)c(=O)c2cc(F)c(N3CCC(CNC(=O)Nc4ccc(OC)cc4)CC3)c(F)c21" ; what MBC value has been reported?
result: > 16 µg/mL

query: Need MBC, item "CCn1cc(C(=O)O)c(=O)c2cc(F)c(N3CCC(CNC(=O)Nc4ccccc4F)CC3)c(F)c21"
result: > 32 µg/mL

query: // lookup MBC for "NCC1CCN(c2c(F)cc3c(=O)c(C(=O)O)cn(Cc4ccccc4Cl)c3c2F)CC1"
result: > 16 µg/mL

query: Endpoint output: MBC of "CCn1cc(C(=O)O)c(=O)c2cc(F)c(N3CCC(CN)CC3)c(F)c21" . Value?
result: 4 µg/mL

query: Consider the compound shown here: "CCn1cc(C(=O)O)c(=O)c2cc(F)c(N3CCC(CNC(=O)Nc4ccccc4)CC3)c(F)c21" What is its recorded MBC?
result: 6 µg/mL

query: Could you tell me which MBC is on file for "C=CCn1cc(C(=O)O)c(=O)c2cc(F)c(N3CCC(CN)CC3)c(F)c21" ?
result: 16 µg/mL

query: Given the compound "CCn1cc(C(=O)O)c(=O)c2cc(F)c(N3CCC(CNC(=O)Nc4ccc(F)cc4F)CC3)c(F)c21" , what is its reported MBC?
result: > 16 µg/mL

query: Suppose we examine the compound "CCn1cc(C(=O)O)c(=O)c2cc(F)c(N3CCC(CNC(=O)Nc4ccc(C)cc4)CC3)c(F)c21" ; what MBC value has been reported?
result: > 16 µg/mL

query: What MBC value was documented for this compound, "CCn1cc(C(=O)O)c(=O)c2cc(F)c(N3CCC(CNC(=O)Nc4ccc(Cl)c(Cl)c4)CC3)c(F)c21" ?
result: > 16 µg/mL

query: Data request, read-out MBC, for "CCn1cc(C(=O)O)c(=O)c2cc(F)c(N3CCC(CNC(=O)Nc4ccc([N+](=O)[O-])cc4)CC3)c(F)c21"
result: > 16 µg/mL

query: Item under review: "NCC1CCN(c2c(F)cc3c(=O)c(C(=O)O)cn(CCF)c3c2F)CC1" . Reported MBC?
result: 16 µg/mL

query: Entry "NCC1CCN(c2c(F)cc3c(=O)c(C(=O)O)cn(Cc4ccc(F)cc4)c3c2F)CC1" has what MBC?
result: > 12 µg/mL

query: Return reported MBC; argument: "CCn1cc(C(=O)O)c(=O)c2cc(F)c(N3CCC(CNC(=O)Nc4cccc(F)c4)CC3)c(F)c21"
result: > 16 µg/mL

query: # MBC lookup, item "CCn1cc(C(=O)O)c(=O)c2cc(F)c(N3CCC(CNC(=O)CCO)CC3)c(F)c21"
result: > 32 µg/mL

query: Form field: reported MBC of "CCOC(=O)c1ccc(NC(=O)NCC2CCN(c3c(F)cc4c(=O)c(C(=O)O)cn(CC)c4c3F)CC2)cc1"
result: > 16 µg/mL

query: MBC lookup needed for CCn1cc(C(=O)O)c(=O)c2cc(F)c(N3CCN(C)CC3)cc21 [Pefloxacine, reference compound] , thanks.
result: 2 µg/mL

query: Quick one: MBC of "CCC(=O)NCC1CCN(c2c(F)cc3c(=O)c(C(=O)O)cn(CC)c3c2F)CC1" ?
result: > 16 µg/mL

* * *

- Test system: Streptococcus faecalis ATCC 8043
- Experiment description: Determination of MIC and MBC by microdilution method, Streptococcus faecalis ATCC 8043
- Assay type: cell-based
- Protocol conditions: S. faecalis ATCC 8043
Provide the recorded Minimal bactericidal concentration (MBC) for the entries that follow.
The reply should be a number in µg/mL, with the unit left off.

query: Fill blank: measured Minimal bactericidal concentration (MBC) of the compound "C=CCn1cc(C(=O)O)c(=O)c2cc(F)c(N3CCC(NC(C)=O)CC3)c(F)c21" is ____.
result: 16

query: Find the recorded Minimal bactericidal concentration (MBC) belonging to CCn1cc(C(=O)O)c(=O)c2cc(F)c(N3CCC(CN)CC3)c(F)c21 [Compound b] and report it.
result: 1

query: Entry under review: "C=CCn1cc(C(=O)O)c(=O)c2cc(F)c(N3CCC(CNC(=O)NC(=O)c4ccccc4)CC3)c(F)c21" . Reported Minimal bactericidal concentration (MBC)?
result: 32

* * *

Would you mind telling me the reported MBC of each entry?
- System: Staphylococcus aureus ATCC 25923
- Experiment description: Determination of MIC and MBC by microdilution method, Staphylococcus aureus ATCC 25923
- Format: cell-based
- Protocol conditions: Staphylococcus aureus, ATCC25923, S. aureus ATCC 25923; read-out: Minimal bactericidal concentration (MBC)
// return numeric value only (unit: µg/mL, not printed)

query: Give the reported MBC for "NCC1CCN(c2c(F)cc3c(=O)c(C(=O)O)cn(Cc4ccc(F)cc4)c3c2F)CC1" (system: Staphylococcus aureus ATCC 25923).
result: 12

query: Checklist item: MBC tested on Staphylococcus aureus ATCC 25923, entry "CCn1cc(C(=O)O)c(=O)c2cc(F)c(N3CCC(CNC(=O)CCO)CC3)c(F)c21" , value?
result: 1

query: Hi! What's the reported MBC for "CCn1cc(C(=O)O)c(=O)c2cc(F)c(N3CCC(CNC(=O)Nc4ccc(Cl)c(Cl)c4)CC3)c(F)c21" on Staphylococcus aureus ATCC 25923?
result: 8

query: Hi! What's the reported MBC for "CCn1cc(C(=O)O)c(=O)c2cc(F)c(N3CCC(CNC(=O)Nc4ccc([N+](=O)[O-])cc4)CC3)c(F)c21" on Staphylococcus aureus ATCC 25923?
result: 0.03

* * *

- System: Staphylococcus aureus ATCC 25923
- Experiment description: Determination of MIC and MBC by microdilution method, Staphylococcus aureus ATCC 25923
- Format: cell-based
- Protocol conditions: Staphylococcus aureus, ATCC25923, S. aureus ATCC 25923; read-out: Minimal bactericidal concentration (MBC)
For each record, write down the corresponding MBC.
Use µg/mL as the unit, but write only the number.

query: Would you kindly share the measured MBC for "NCC1CCN(c2c(F)cc3c(=O)c(C(=O)O)cn(CCF)c3c2F)CC1" ?
result: 1

query: Value lookup for MBC; key = "CCC(=O)NCC1CCN(c2c(F)cc3c(=O)c(C(=O)O)cn(CC)c3c2F)CC1"
result: 0.51

query: Could you share which MBC value was measured for "CCn1cc(C(=O)O)c(=O)c2cc(F)c(N3CCC(CNC(=O)Nc4ccc(OC)cc4)CC3)c(F)c21" ?
result: 0.06

* * *

- Tested on: Staphylococcus aureus ATCC 25923
- Experiment description: Determination of MIC and MBC by microdilution method, Staphylococcus aureus ATCC 25923
- Assay type: cell-based
- Protocol conditions: Staphylococcus aureus, ATCC25923, S. aureus ATCC 25923; read-out: Minimal bactericidal concentration (MBC)
Measure name: MBC (µg/mL)
The response must be a number in µg/mL with no trailing unit.

query: Which MBC reading was recorded for the compound CCn1cc(C(=O)O)c(=O)c2cc(F)c(N3CCN(C)CC3)cc21 [Pefloxacine, reference compound] ?
result: 0.25

query: Could you share which MBC value was measured for "NCC1CCN(c2c(F)cc3c(=O)c(C(=O)O)cn(Cc4ccccc4Cl)c3c2F)CC1" ?
result: 4

query: Give the measured MBC of "CCn1cc(C(=O)O)c(=O)c2cc(F)c(N3CCC(CNC(=O)Nc4cccc(F)c4)CC3)c(F)c21" .
result: 0.25

query: Tell me the measured MBC of "CCOC(=O)c1ccc(NC(=O)NCC2CCN(c3c(F)cc4c(=O)c(C(=O)O)cn(CC)c4c3F)CC2)cc1" , please.
result: 0.12
